System: 379773-124-R-J2-PDC spheroid viability
Test: Anticancer human tumor 379773-124-R-J2-PDC patient-derived endometrial carcinoma cell line growth inhibition [POLQ]
Conditions: second compound 10 µM; first compound 0.0316 µM; stronger effect = lower value; spheroids with HUVEC and MSC
viability, T/C strictly less than 80% = YES. Otherwise NO.

Solved entries (count: 3):
CCc1cc2c(N3CCc4c(cc(Cn5ccnc5)cc4-c4cn(C)nc4C(F)(F)F)C3=O)ccnc2c(OC)n1 + Nc1ccc(C#CCN(C(=O)Cc2ncc(C(F)(F)F)cc2C(F)(F)F)c2ccc(F)cc2)nn1 | NO
CC1COCCN1c1cc(C2(S(C)(=N)=O)CC2)nc(-c2ccnc3[nH]ccc23)n1 (stereo not given) + Nc1ccc(C#CCN(C(=O)Cc2ncc(C(F)(F)F)cc2C(F)(F)F)c2ccc(F)cc2)nn1 | NO
COc1cc(C2c3cc4c(cc3C(OC3OC5COC(C)OC5C(O)C3O)C3COC(=O)C23)OCO4)cc(OC)c1O (stereo not given) + Cc1cccc(N(C)C(=O)C2C(O)CCN2c2nc(C)cc(C(F)(F)F)c2C#N)c1 | YES

Shift focus to the following entry.
# strict comparison: is reported viability, T/C < 80%? input = CCc1cc2c(N3CCc4c(cc(Cn5ccnc5)cc4-c4cn(C)nc4C(F)(F)F)C3=O)ccnc2c(OC)n1 + COC1C(OC(N)=O)C(O)C(Oc2ccc3c(O)c(NC(=O)c4ccc(O)c(CC=C(C)C)c4)c(=O)oc3c2C)OC1(C)C
NO

###

Tested on: 379773-124-R-J2-PDC spheroid viability
Assay: Anticancer human tumor 379773-124-R-J2-PDC cell line growth inhibition [POLQ];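 also: spheroids exposed to drugs for seven days before readout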
Conditions: second compound 10 µM; first compound 0.0316 µM; stronger effect = lower value; spheroids with HUVEC and MSC
viability, T/C strictly less than 80% = True. Otherwise False.

Solved entries (count: 5):
COc1cc2cc(C(=O)CCC(=O)O)sc2cc1OC + Cc1cccc(N(C)C(=O)C2C(O)CCN2c2nc(C)cc(C(F)(F)F)c2C#N)c1 | False
CCc1cc2c(N3CCc4c(cc(Cn5ccnc5)cc4-c4cn(C)nc4C(F)(F)F)C3=O)cc(C)nc2c(OC)n1 + Cc1cccc(N(C)C(=O)C2C(O)CCN2c2nc(C)cc(C(F)(F)F)c2C#N)c1 | True
C#Cc1c(F)ccc2cc(O)cc(-c3ncc4c(N5CC6CCC(C5)N6)nc(OCC56CCCN5CC(F)C6)nc4c3F)c12 (stereo unspecified) + Cc1cccc(N(C)C(=O)C2C(O)CCN2c2nc(C)cc(C(F)(F)F)c2C#N)c1 | False
CC[C@@]1(O)C(=O)OCc2c1cc1n(c2=O)Cc2cc3c(CN(C)C)c(O)ccc3nc2-1 + Nc1ccc(C#CCN(C(=O)Cc2ncc(C(F)(F)F)cc2C(F)(F)F)c2ccc(F)cc2)nn1 | True
O=c1[nH]cc(F)c(=O)[nH]1 + COC1C(OC(N)=O)C(O)C(Oc2ccc3c(O)c(NC(=O)c4ccc(O)c(CC=C(C)C)c4)c(=O)oc3c2C)OC1(C)C | True

# strict comparison: is reported viability, T/C < 80%? input = CC1COCCN1c1cc(C2(O)CC3CCC(C2)O3)c2cnn(-c3ccn[nH]3)c2n1 (stereo unspecified) + Nc1ccc(C#CCN(C(=O)Cc2ncc(C(F)(F)F)cc2C(F)(F)F)c2ccc(F)cc2)nn1
False

# strict comparison: is reported viability, T/C < 80%? input = Nc1ccn(C2OC(CO)C(O)C2(F)F)c(=O)n1 (stereo unspecified) + Nc1ccc(C#CCN(C(=O)Cc2ncc(C(F)(F)F)cc2C(F)(F)F)c2ccc(F)cc2)nn1
False

# strict comparison: is reported viability, T/C < 80%? input = COc1ccc([C@@H](O)c2cc(-c3ncnc4cc(N5CCOCC5)ccc34)c(F)cc2Cl)nn1 + Nc1ccc(C#CCN(C(=O)Cc2ncc(C(F)(F)F)cc2C(F)(F)F)c2ccc(F)cc2)nn1
False

# strict comparison: is reported viability, T/C < 80%? input = COc1cccc2c1C(=O)c1c(O)c3c(c(O)c1C2=O)CC(O)(C(=O)CO)CC3OC1CC(N)C(O)C(C)O1 (stereo unspecified) + COC1C(OC(N)=O)C(O)C(Oc2ccc3c(O)c(NC(=O)c4ccc(O)c(CC=C(C)C)c4)c(=O)oc3c2C)OC1(C)C
False
